- System: Escherichia coli TOP10;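 further: peptides expressed intracellularly from a pBAD plasmid library in pooled LB shake-flask culture, induced with 0.3% L-arabinose, DNA abundance read by NGS, three biological replicates, DESeq2 with apeglm shrinkage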
- test_name: shrunken log2 fold change of peptide-encoding DNA abundance (4.5 h post-induction vs induction); higher = less antimicrobial activity (less host growth inhibition)
- applied_conditions: time post-induction: 4.5 h; library: site-saturation at positions 5, 18, 19, 20
Threshold rule: shrunken log2 fold change greater than or equal to -0.0003 is label 1; below that, label 0.

Confirm if shrunken log2 fold change reported for the sequence RRIRMRPPRLPRPRPRPPSKPRP is -0.0003 or above.
label 1

Confirm if shrunken log2 fold change reported for the sequence RRIRLRPPRLPRPRPRPSIEPRP is -0.0003 or above.
label 0

Confirm if shrunken log2 fold change reported for the sequence RRIRERPPRLPRPRPRPRDCPRP is -0.0003 or above.
label 1

Confirm if shrunken log2 fold change reported for the sequence RRIRIRPPRLPRPRPRPCNKPRP is -0.0003 or above.
label 0

Confirm if shrunken log2 fold change reported for the sequence RRIRKRPPRLPRPRPRPMRIPRP is -0.0003 or above.
label 1

Confirm if shrunken log2 fold change reported for the sequence RRIRWRPPRLPRPRPRPRTQPRP is -0.0003 or above.
label 1

Confirm if shrunken log2 fold change reported for the sequence RRIRMRPPRLPRPRPRPGASPRP is -0.0003 or above.
label 1

Confirm if shrunken log2 fold change reported for the sequence RRIRERPPRLPRPRPRPAHEPRP is -0.0003 or above.
label 1

Confirm if shrunken log2 fold change reported for the sequence RRIRLRPPRLPRPRPRPKLDPRP is -0.0003 or above.
label 0

Confirm if shrunken log2 fold change reported for the sequence RRIRARPPRLPRPRPRPCPQPRP is -0.0003 or above.
label 1

Confirm if shrunken log2 fold change reported for the sequence RRIRNRPPRLPRPRPRPYDMPRP is -0.0003 or above.
label 0

Confirm if shrunken log2 fold change reported for the sequence RRIRIRPPRLPRPRPRPVYNPRP is -0.0003 or above.
label 0

Confirm if shrunken log2 fold change reported for the sequence RRIRERPPRLPRPRPRPIWCPRP is -0.0003 or above.
label 1

Confirm if shrunken log2 fold change reported for the sequence RRIRIRPPRLPRPRPRPQKRPRP is -0.0003 or above.
label 0

Confirm if shrunken log2 fold change reported for the sequence RRIRIRPPRLPRPRPRPQDCPRP is -0.0003 or above.
label 1

Confirm if shrunken log2 fold change reported for the sequence RRIRMRPPRLPRPRPRPKYVPRP is -0.0003 or above.
label 0
